Target: T1, cynomolgus IL-2Rγ (recombinant protein and on cells) (cynomolgus, UniProt A0A2K5VGJ6 23-254)
T1 construct: also called cynomolgus IL-2RG
T1 sequence: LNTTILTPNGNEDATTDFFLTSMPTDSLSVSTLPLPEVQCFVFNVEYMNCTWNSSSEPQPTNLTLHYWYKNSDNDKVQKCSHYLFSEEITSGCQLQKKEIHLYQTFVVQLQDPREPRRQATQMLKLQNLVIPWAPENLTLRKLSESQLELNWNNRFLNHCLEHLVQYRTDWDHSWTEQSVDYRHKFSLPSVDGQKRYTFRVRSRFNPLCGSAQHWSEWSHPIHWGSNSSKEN
Assay: biolayer interferometry (Octet Qk384), antibody captured on anti-human Fc (AHC) sensors, antigen 7.8-500 nM in solution, 1:1 fit, KD = kd/ka
quantity_name: Kd (nM)
# value in nM; strip the unit string

BsAb-3 (IL2RB_F09G**IL2RG_F16C) (bispecific antibody, human IgG4, V domains shown, Heavy chain-only bispecific on silenced, stabilised human IgG4 Fc, knobs-into-holes, no light chains; not shown: C-terminal His-tag on the knob chain) V domain 1: QVQLQESGPGLVKSSETLSLTCTVSGGSISSSDWWSWVRQPPGKGLEWIGEIDHSGSTNYNPSLMSRVTISVDKSKNQFSLKLSSVTAADTAVYFCARGSWELTDAFDIRGQGTLVTVSS V domain 2: QVQLVESGGGLVKPGGSLRLSCAASGFTFNDYYMSWIRQAPGKGLEWVSHISSSGSTIYYADSVKGRFTVSRDNANNSLYLQMHSLRAEDTAVYYCARGDAVSITGDYRGQGTLVTVSS ... 3.58
BsAb-4 (IL2RB_F09G**IL2RG_F18A) (bispecific antibody, human IgG4, V domains shown, Heavy chain-only bispecific on silenced, stabilised human IgG4 Fc, knobs-into-holes, no light chains; not shown: C-terminal His-tag on the knob chain) V domain 1: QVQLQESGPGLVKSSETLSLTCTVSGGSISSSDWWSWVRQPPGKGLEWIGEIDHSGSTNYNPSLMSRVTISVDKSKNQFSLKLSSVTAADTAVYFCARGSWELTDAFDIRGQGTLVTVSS V domain 2: QVQLVESGGDLVKPGGSLRLSCAASGFTFSDYYMSWLRQAPGKELEWVSHISSSGTTTYYADSVEGRFTITRDNAKNSLYLQMNSLRAEDTAVYYCARGAAVAPGFDSRGQGTLVTVSS ... 5.81

// query Consider the binder BsAb-1 (IL2RB_F09C**IL2RG_F16A) (bispecific antibody, human IgG4, V domains shown, Heavy chain-only bispecific on silenced, stabilised human IgG4 Fc, knobs-into-holes, no light chains; not shown: C-terminal His-tag on the knob chain) V domain 1: QVQLQESGPGLVKPSGTLSLTCAVSGGSISSSDWWSWVRQPPGKGLEWIGEIDHSGSTNYNPSLMSRVTISVDKSKNQFSLKLSSVTAADTAVYFCGRGSWELSDAFDIRGQGTLVTVSS V domain 2: QVQLVESGGGLVKPGGSLRLSCAASGFTFSDYYMSWIRQAPGKGLEWVSSISSSGDTIYYADSVQGRFTLSRDNAENSLFLQMNSLRAEDTAVYYCARGDAVSITGDYRGQGTLVTVSS and give its measured Kd.
// result 4.87

The reported numbers originate from patent US20260102487A1.
